Tested on: human APOE RNA
TEST_SUMMARY: Activity in APOE 1549 knock-in mice, single ICV bolus, 2 weeks (Example 7)
Type: in vivo
ASSAY_CONDITIONS: single ICV bolus of 300 μg, two weeks post treatment, cortex, Table 17
Strand notation (5' to 3'): a small letter for the sugar, then the base; units joined by * are phosphorothioate-linked, units joined directly phosphodiester-linked; [ ] holds rarer units or linkages, { } end groups; capitals alone tell only the bases. [ms] = mesyl phosphoramidate linkage; e = 2'-O-(2-methoxyethyl) (MOE); [5mC] = 5-methylcytosine; d = 2'-deoxy (DNA)
MEASURED_PARAMETER: APOE RNA (% control) Cortex
Dear colleague, please return just the value in % control, with no unit written.

The reported value for 1693105: 6-10-4 MOE gapmer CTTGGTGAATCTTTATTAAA, linkages sosssszzzssssszssss (e[5mC]*eTeT*eG*eG*eT*dG[ms]dA[ms]dA[ms]dT*d[5mC]*dT*dT*dT*dA[ms]dT*eT*eA*eA*eA) [compound 1693105] in terms of APOE RNA (% control) Cortex is 51

// sample 1693101: 6-10-4 MOE gapmer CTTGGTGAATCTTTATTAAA, linkages sssssozzzssssszssss (e[5mC]*eT*eT*eG*eG*eTdG[ms]dA[ms]dA[ms]dT*d[5mC]*dT*dT*dT*dA[ms]dT*eT*eA*eA*eA) [compound 1693101] , its APOE RNA (% control) Cortex was 79

Entry under test: 1652902: 6-10-4 MOE gapmer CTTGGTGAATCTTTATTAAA, linkages sooooossssssssssoss (antisense e[5mC]*eTeTeGeGeTdG*dA*dA*dT*d[5mC]*dT*dT*dT*dA*dT*eTeA*eA*eA) [compound 1652902] . Its APOE RNA (% control) Cortex was 31

So, 1693102: 6-10-4 MOE gapmer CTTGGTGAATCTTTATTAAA, linkages ssssoszzzssssszssss (e[5mC]*eT*eT*eG*eGeT*dG[ms]dA[ms]dA[ms]dT*d[5mC]*dT*dT*dT*dA[ms]dT*eT*eA*eA*eA) [compound 1693102] ? Its APOE RNA (% control) Cortex was 60
